These data points were gathered from patent US20230126447A1.

- assay-notes: Ocular tissue distribution and pharmacokinetics, 7.5 and 15 mg/kg oral, pigmented Dutch Belted rabbits (Example 7)
- Format: in vivo
- particulars: male, Dutch Belted, rabbit, plasma, po, […], plasma, male DB rabbits, Group 1, Day 1, […] single oral dose
measurement-kind: Cmax (ng/mL)
Output spec: scalar in ng/mL, unitless text.

Query block: Reported Cmax for CC(=O)c1nn(CC(=O)N2C[C@H](F)C[C@H]2C(=O)Nc2cccc(Br)n2)c2ccc(-c3cnc(C)nc3)cc12 [Compound 1] : what is it?
Result block: 423

====

- assay-notes: Ocular tissue and plasma pharmacokinetics, 15 mg/kg oral, New Zealand White rabbits (Example 3/5)
- Type: in vivo
- particulars: New Zealand White, choroid-RPE; NZW rabbit, 15 mg/kg single oral dose, Day 1, 24 h; read-out: Mean Choroid-RPE concentration
measurement-kind: concentration at 24 h
# include the unit after the value

Query block: Form field: reported concentration at 24 h of CC(=O)c1nn(CC(=O)N2C[C@H](F)C[C@H]2C(=O)Nc2cccc(Br)n2)c2ccc(-c3cnc(C)nc3)cc12
Result block: 15.1 ng/g

====

- assay-notes: Ocular tissue and plasma pharmacokinetics, 15 mg/kg oral, New Zealand White rabbits (Example 3/5)
- Format: in vivo
- particulars: New Zealand White, plasma; NZW rabbit, 15 mg/kg single oral dose, Day 1, 1 h; read-out: Mean plasma concentration
measurement-kind: concentration at 1 h (ng/mL)
// units = ng/mL; emit number, no label

Query block: Would you kindly share the measured concentration at 1 h for CC(=O)c1nn(CC(=O)N2C[C@H](F)C[C@H]2C(=O)Nc2cccc(Br)n2)c2ccc(-c3cnc(C)nc3)cc12 [Compound 1] ?
Result block: 310

====

- assay-notes: Ocular tissue and plasma pharmacokinetics, 15 mg/kg single and BID oral, Dutch Belted rabbits (Example 3/5)
- Type: in vivo
- particulars: Dutch Belted, rabbit, choroid-RPE, po, 15 mg/kg, DB rabbit, 15 mg/kg single oral dose, Day 1, 96 h; read-out: Mean Choroid-RPE concentration
measurement-kind: concentration at 96 h

Query block: Entry CC(=O)c1nn(CC(=O)N2C[C@H](F)C[C@H]2C(=O)Nc2cccc(Br)n2)c2ccc(-c3cnc(C)nc3)cc12 : reported concentration at 96 h = ?
Result block: 77.5 ng/g

====

- assay-notes: Phase 1 single ascending dose plasma pharmacokinetics in healthy volunteers
- Assay type: in vivo, human
- particulars: human, po, 1200 mg, Group 3, 1200 mg single oral dose, individual subjects, read-out: AUC(0-∞)
measurement-kind: AUC(0-inf) (ng·h/mL)
Expressed in ng·h/mL, but write only the number.

Query block: What value of AUC(0-inf) has been reported for the following molecule? CC(=O)c1nn(CC(=O)N2C[C@H](F)C[C@H]2C(=O)Nc2cccc(Br)n2)c2ccc(-c3cnc(C)nc3)cc12
Result block: 15800

====

- assay-notes: Ocular tissue and plasma pharmacokinetics, 15 mg/kg oral, New Zealand White rabbits (Example 3/5)
- Assay type: in vivo
- particulars: New Zealand White, po; Vitreous Humor, NZW rabbit, 15 mg/kg single dose, Day 1
measurement-kind: Cmax (ng/mL)
# value in ng/mL; strip the unit string

Query block: Which value of Cmax has been reported for CC(=O)c1nn(CC(=O)N2C[C@H](F)C[C@H]2C(=O)Nc2cccc(Br)n2)c2ccc(-c3cnc(C)nc3)cc12 in the records?
Result block: 7.61

====

- assay-notes: Ocular tissue distribution and pharmacokinetics, 7.5 and 15 mg/kg oral, pigmented Dutch Belted rabbits (Example 7)
- Type: in vivo
- particulars: Dutch Belted, rabbit, choroid-RPE, oral, 15 mg/kg, DB rabbits, Day 15, 15 mg/kg BID, 1 hr; read-out: Mean Choroid-RPE Concentration
measurement-kind: concentration at 1 h
Kindly format the answer as number then unit.

Query block: Which concentration at 1 h value is on record for CC(=O)c1nn(CC(=O)N2C[C@H](F)C[C@H]2C(=O)Nc2cccc(Br)n2)c2ccc(-c3cnc(C)nc3)cc12 ?
Result block: 3970 ng/g

====

- assay-notes: Ocular tissue and plasma pharmacokinetics, 15 mg/kg single and BID oral, Dutch Belted rabbits (Example 3/5)
- Type: in vivo
- particulars: Dutch Belted, rabbit, choroid-RPE, oral, 15 mg/kg, DB rabbits, Day 15, 15 mg/kg BID, 1 hr; read-out: Mean Choroid-RPE Concentration
measurement-kind: concentration at 1 h (ng/g)
Please respond with the number in ng/g and leave the unit unwritten.

Query block: Query (compound): CC(=O)c1nn(CC(=O)N2C[C@H](F)C[C@H]2C(=O)Nc2cccc(Br)n2)c2ccc(-c3cnc(C)nc3)cc12 ; field requested: concentration at 1 h
Result block: 4870

====

- assay-notes: Ocular tissue and plasma pharmacokinetics, 15 mg/kg oral, New Zealand White rabbits (Example 3/5)
- Assay type: in vivo
- particulars: New Zealand White, rabbit, retina, oral; NZW rabbits, Day 1, 15 mg/kg single dose, 6 hr; read-out: Mean Retina Concentration
measurement-kind: concentration at 6 h

Query block: Fill in: concentration at 6 h of CC(=O)c1nn(CC(=O)N2C[C@H](F)C[C@H]2C(=O)Nc2cccc(Br)n2)c2ccc(-c3cnc(C)nc3)cc12 is ___
Result block: 26 ng/g

====

- assay-notes: Phase 1 single ascending dose plasma pharmacokinetics in healthy volunteers
- Format: in vivo, human
- particulars: human, po, 600 mg, Group 2, 600 mg single oral dose, Mean (N 6), read-out: AUC(0-∞)
measurement-kind: AUC(0-inf) (ng·h/mL)
State just the number; it will be interpreted in ng·h/mL.

Query block: Report AUC(0-inf) for CC(=O)c1nn(CC(=O)N2C[C@H](F)C[C@H]2C(=O)Nc2cccc(Br)n2)c2ccc(-c3cnc(C)nc3)cc12 please.
Result block: 7090

====

- assay-notes: Ocular tissue distribution and pharmacokinetics, 7.5 and 15 mg/kg oral, pigmented Dutch Belted rabbits (Example 7)
- Format: in vivo
- particulars: male, Dutch Belted, rabbit, retina, po, 15 mg/kg, Retina (OU), male DB rabbits, Group 3, Day 15, 15 mg/kg/dose BID oral (30 mg/kg/day)
measurement-kind: Cmax (ng/g)
Expressed in ng/g, but write only the number.

Query block: Given the entry CC(=O)c1nn(CC(=O)N2C[C@H](F)C[C@H]2C(=O)Nc2cccc(Br)n2)c2ccc(-c3cnc(C)nc3)cc12 , report its measured Cmax.
Result block: 1290

====

- assay-notes: Ocular tissue distribution and pharmacokinetics, 7.5 and 15 mg/kg oral, pigmented Dutch Belted rabbits (Example 7)
- Assay type: in vivo
- particulars: Dutch Belted, rabbit, iris-ciliary body, oral, […], DB rabbits, Day 1, […] single dose, 1 hr; read-out: Mean Iris-Ciliary Concentration
measurement-kind: concentration at 1 h (ng/g)
Could you give me the number in ng/g? Just the number is fine.

Query block: Looking for the measured concentration at 1 h of CC(=O)c1nn(CC(=O)N2C[C@H](F)C[C@H]2C(=O)Nc2cccc(Br)n2)c2ccc(-c3cnc(C)nc3)cc12 , can you help?
Result block: 435

====

- assay-notes: Ocular tissue and plasma pharmacokinetics, 15 mg/kg single and BID oral, Dutch Belted rabbits (Example 3/5)
- Type: in vivo
- particulars: Dutch Belted, rabbit, aqueous humor, po, 15 mg/kg, DB rabbit, 15 mg/kg single oral dose, Day 1, 1 h; read-out: Mean Aqueous Humor concentration
measurement-kind: concentration at 1 h

Query block: Need concentration at 1 h of CC(=O)c1nn(CC(=O)N2C[C@H](F)C[C@H]2C(=O)Nc2cccc(Br)n2)c2ccc(-c3cnc(C)nc3)cc12 , thanks.
Result block: 3.8 ng/mL

====

- assay-notes: Ocular tissue distribution and pharmacokinetics, 7.5 and 15 mg/kg oral, pigmented Dutch Belted rabbits (Example 7)
- Format: in vivo
- particulars: Dutch Belted, rabbit, choroid-retinal pigment epithelium (choroid-RPE); Choroid-RPE (OU), male DB rabbits, Group 1, Day 1, 7.5 mg/kg single oral dose
measurement-kind: MRT last
Phrase the answer as number then unit, nothing more needed.

Query block: # MRT last lookup, item CC(=O)c1nn(CC(=O)N2C[C@H](F)C[C@H]2C(=O)Nc2cccc(Br)n2)c2ccc(-c3cnc(C)nc3)cc12 [Compound 1]
Result block: 42.8 h

====

- assay-notes: Ocular tissue and plasma pharmacokinetics, 15 mg/kg single and BID oral, Dutch Belted rabbits (Example 3/5)
- Type: in vivo
- particulars: Dutch Belted, rabbit, iris-ciliary body, po, 15 mg/kg, DB rabbit, 15 mg/kg BID oral, Day 15, 240 h; read-out: Mean Iris-Ciliary Body concentration
measurement-kind: concentration at 240 h
Be sure to follow the number with its unit.

Query block: Please report the recorded concentration at 240 h for CC(=O)c1nn(CC(=O)N2C[C@H](F)C[C@H]2C(=O)Nc2cccc(Br)n2)c2ccc(-c3cnc(C)nc3)cc12 .
Result block: 408 ng/g

====

- assay-notes: Ocular tissue distribution and pharmacokinetics, 7.5 and 15 mg/kg oral, pigmented Dutch Belted rabbits (Example 7)
- Type: in vivo
- particulars: male, Dutch Belted, rabbit, choroid-retinal pigment epithelium (choroid-RPE), po, […], Choroid-RPE (OU), male DB rabbits, Group 2, Day 15, […] BID oral (15 mg/kg/day)
measurement-kind: Cmax (ng/g)
Field format: number, assumed ng/g, no unit text.

Query block: Recorded Cmax for CC(=O)c1nn(CC(=O)N2C[C@H](F)C[C@H]2C(=O)Nc2cccc(Br)n2)c2ccc(-c3cnc(C)nc3)cc12 , please?
Result block: 2000
